From: patent US20170143753A1

Tested on: B. Subtilis
Protocol description: Minimum inhibitory concentration (MIC), broth microdilution
Type: cell-based
Test context: Bacillus subtilis; incubation time 16 h; 10^6 cfu/mL; no visible growth; read-out: Minimum Inhibitory Concentration (MIC) B. Subtilis
Recorded endpoint: MIC (µg/mL)
Field format: number, assumed µg/mL, no unit text.

Ask: // returns reported MIC for input CCCOC(=O)CCCCCCC/C=C\CCCCCCC(C)OC1OC(CO)C(O)C(O)C1OC1OC(CO)C(O)C(O)C1O (stereo not shown)
Reply: 25

Ask: Quick one: CC(=O)OCC1OC2OC(C)CCCCCC/C=C\CCCCCCCC(=O)OC3C(COC(C)=O)OC(OC2C(O)C1O)C(O)C3O (stereo not shown) [Lactonic SL, LSL 6′,6″-diacetate, reference compound]
Reply: 8

Ask: Quick one: CCOC(=O)CCCCCCC/C=C\CCCCCCC(C)OC1OC(CO)C(O)C(O)C1OC1OC(CO)C(O)C(O)C1O (stereo not shown)
Reply: 32

Ask: Quick one: CCCCOC(=O)CCCCCCC/C=C\CCCCCCC(C)OC1OC(CO)C(O)C(O)C1OC1OC(CO)C(O)C(O)C1O (stereo not shown)
Reply: 8
